tgt: Motilin Receptor (Oryctolagus cuniculus, UniProt G1T803)
Construct: The muscle tissue was homogenized in 10 volumes of 50 mM Tris-Cl; from tissue; host or cells: rabbit colon smooth muscle, crude membrane homogenate
Sequence (G1T803 1-400): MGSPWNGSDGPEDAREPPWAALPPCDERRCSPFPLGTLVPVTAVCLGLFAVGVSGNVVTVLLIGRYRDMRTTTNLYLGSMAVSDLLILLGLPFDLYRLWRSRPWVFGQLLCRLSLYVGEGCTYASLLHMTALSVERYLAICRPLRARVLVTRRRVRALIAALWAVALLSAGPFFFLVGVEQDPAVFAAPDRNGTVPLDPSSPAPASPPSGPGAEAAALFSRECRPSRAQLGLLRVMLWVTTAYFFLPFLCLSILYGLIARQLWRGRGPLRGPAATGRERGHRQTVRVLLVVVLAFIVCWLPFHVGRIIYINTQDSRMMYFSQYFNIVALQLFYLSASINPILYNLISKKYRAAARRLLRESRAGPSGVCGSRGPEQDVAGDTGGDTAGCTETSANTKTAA
assayInfo: Motilin receptor binding, rabbit colon membranes, 125I porcine motilin
Parameters: dose or concentration left out as unconfirmed
conditionInfo: rabbit colon membranes; read-out: Rabbit Colon % Inh
Assign rule met whenever inhibition does not fall below 70%; assign rule not met whenever it does.

> print(dat)
                                    molecule         label
 1  O=C(Nc1ccccc1)N(CC1CCCC(N(Cc2ccccc2)C(=O)c2ccco2)C1)c1cccc(OCCN2CCOCC2)c1 (stereo not shown)  rule not met
 2  O=C(CCCC(=O)N(Cc1ccc(F)cc1)c1cccc(OCCN2CCCC2)c1)N(CCc1ccc(Cl)cc1)Cc1cccc(Cl)c1      rule met
 3  O=C(CCCC(=O)N(Cc1ccc(F)cc1)c1cccc(OCCN2CCCC2)c1)N(CCc1ccccn1)Cc1cccc(Cl)c1      rule met
 4  COc1ccc(CN(C(=O)CCCC(=O)N(CCc2ccccc2)Cc2ccccc2)c2cccc(OCCN3CCOCC3)c2)cc1  rule not met
 5  O=C(CCC(=O)N(Cc1ccc(F)cc1)c1cccc(OCCN2CCOCC2)c1)N(CCc1ccccc1)Cc1cccc(Cl)c1      rule met
 6  COc1cccc(CN(Cc2cccc(Cl)c2)C(=O)CCCC(=O)N(Cc2ccc(F)cc2)c2cccc(OCCN3CCOCC3)c2)c1  rule not met
 7  O=C(c1ccc(F)cc1)N(CC1CCCC(N(Cc2cccc([N+](=O)[O-])c2)C(=O)C(Cl)(Cl)Cl)C1)c1cccc(OCCN2CCCC2)c1 (stereo not shown)      rule met
 8  O=C(c1ccc(F)cc1)N(CC1CCCC(N(Cc2ccccc2)C(=O)C(Cl)(Cl)Cl)C1)c1cccc(OCCN2CCCC2)c1 (stereo not shown)      rule met
 9  O=C(Nc1ccccc1)N(CC1CCCC(N(Cc2ccccc2)C(=O)C(Cl)(Cl)Cl)C1)c1cccc(OCCN2CCOCC2)c1 (stereo not shown)      rule met
10  O=C(Nc1ccccc1)N(CC1CCCC(N(Cc2cccc([N+](=O)[O-])c2)C(=O)C(Cl)(Cl)Cl)C1)c1cccc(OCCN2CCOCC2)c1 (stereo not shown)      rule met

---

Here the recorded Rabbit Colon % Inh is given for each entry.
tgt: Motilin Receptor (Oryctolagus cuniculus, UniProt G1T803)
Construct: The muscle tissue was homogenized in 10 volumes of 50 mM Tris-Cl; from tissue; host or cells: rabbit colon smooth muscle, crude membrane homogenate
assayInfo: Motilin receptor binding, rabbit colon membranes, 125I porcine motilin
Design: dose or concentration left out as unconfirmed
conditionInfo: rabbit colon membranes
measureName: Rabbit Colon % Inh (%)

> print(dat)
                                   compound         measurename  measureunit  valuereported
1  COc1cccc(C(=O)N(Cc2cccc(Cl)c2)C2CCCC(CN(C(=O)Nc3ccccc3)c3cccc(OCCN4CCOCC4)c3)C2)c1 (stereo not drawn) [compound 51]  Rabbit Colon % Inh            %             73
2  O=C(c1ccc(F)cc1)N(CCCC(=O)N1CCc2ccccc2C1c1ccccc1)c1cccc(OCCN2CCOCC2)c1 (stereo not drawn) [compound 148]  Rabbit Colon % Inh            %             19
3  O=C(CCCCN(C(=O)c1ccc(F)cc1)c1cccc(OCCN2CCOCC2)c1)N(Cc1ccccc1)Cc1ccccc1 [compound 29]  Rabbit Colon % Inh            %             18
4  O=C(c1ccc(F)cc1)N(CC1CCCC(N(Cc2cccc(Cl)c2)C(=O)Cc2ccc(F)cc2)C1)c1cccc(OCCN2CCOCC2)c1 (stereo not drawn) [compound 249]  Rabbit Colon % Inh            %             22
5  CCN(Cc1ccc(C)cc1)C(=O)CCCCN(c1cccc(OCCN2CCOCC2)c1)S(=O)(=O)c1ccc(C)cc1 [compound 35]  Rabbit Colon % Inh            %             17
6  CN(CCOc1cccc(N(CC2CCCC(N(Cc3cccc(Cl)c3)C(=O)C(C)(C)C)C2)C(=O)c2ccc(F)cc2)c1)Cc1ccccc1 (racemic) [compound 232]  Rabbit Colon % Inh            %             62
